# IC50 against PASK (Invitrogen) (Homo sapiens), merged from multiple literature sources

Some solved cases for reference:
molecule	IC50
Cc1n[nH]c2ccc(-c3cc(=O)n4nc(N)c(-c5ccccn5)c4[nH]3)cc12	≤ 10 µM
Cc1cnc(-c2cnn3c(=O)cc(-c4ccc5[nH]nnc5c4)[nH]c23)o1	≤ 10 µM
O=c1cc(-c2ccc3[nH]nnc3c2)[nH]c2c(-c3ccccn3)cnn12	≤ 10 µM
CCC(=O)Nc1nn2c(=O)cc(-c3ccc4c(c3)OCO4)[nH]c2c1-c1ccccn1	≤ 10 µM
C[C@H]1CCCN1c1nc2cc(C(=O)O)ccc2nc1-c1ccc2[nH]nnc2c1	< 10 µM
Cc1nc2cc(C(=O)O)c(O)cc2nc1-c1ccccc1	≥ 10 µM
O=c1cc(-c2ccc3c(c2)OCO3)[nH]c2nc(-c3ccccn3)nn12	≤ 10 µM
CNC(=O)Cc1cnn2c(=O)cc(-c3ccc(Cl)c(OC)c3)[nH]c12	≤ 10 µM
Cc1nn2c(=O)cc(-c3ccc4c(c3)OCO4)[nH]c2c1-c1ncco1	≤ 10 µM
O=c1cc(-c2ccc3[nH]ncc3c2)[nH]c2c(-c3ccc(Cl)cc3)c(O)nn12	≤ 10 µM

Given the entry "Cn1ncc2cc(-c3cc(=O)n4ncc(-c5ncco5)c4[nH]3)ccc21" , report its measured IC50.
≤ 10 µM

Follow-up item: "CN(c1nc2cc(C(=O)O)ccc2nc1-c1ccc(F)cc1)C(C)(C)C"
< 10 µM

Follow-up item: "C[C@H]1CCCN1c1nc2cc(C(=O)O)c(O)cc2nc1-c1ccc2[nH]ncc2c1"
< 10 µM

Follow-up item: "Nc1nn2c(=O)cc(-c3ccc(F)cc3)[nH]c2c1-c1ccccn1"
≤ 10 µM

Follow-up item: "Cc1cnc(-c2cnn3c(=O)cc(-c4ccc(Cl)c(OC(F)(F)F)c4)[nH]c23)o1"
≤ 10 µM

Follow-up item: "O=C(O)c1ccc2nc(-c3ccc4c(c3)OCCO4)c(N3CCCc4ccccc43)nc2c1"
≤ 10 µM

Follow-up item: "C[C@H]1CCCN1c1nc2cc(C(=O)O)ccc2nc1-c1ccc(F)cc1F"
< 10 µM

Follow-up item: "CN(Cc1ccccc1)c1nc2cc(C(=O)O)ccc2nc1-c1ccc(F)cc1"
< 10 µM

Follow-up item: "O=c1cc(-c2ccc3c(c2)OCCO3)[nH]c2c(-c3ccccc3)cnn12"
≤ 10 µM

Follow-up item: "COc1nn2c(=O)cc(-c3ccc(Cl)cc3)[nH]c2c1C#N"
≤ 10 µM

Follow-up item: "COC[C@H]1CCCN1c1nc2cc(C(=O)O)ccc2nc1-c1cc2cc(F)ccc2o1"
< 10 µM

* * *

# pIC50 against PASK (Invitrogen) (Homo sapiens, UniProt Q96RG2), merged from multiple literature sources
pIC50: −log10 of the molar value.

Some solved cases for reference:
chemical.smiles	experimental.endpoint	recorded.measurement
C[C@@H](c1ccccc1)N(C)c1nc2cc(C(=O)O)ccc2nc1-c1ccc2[nH]ncc2c1	pIC50	> 5.00
CCC(=O)Nc1nn2c(=O)cc(-c3ccc4nn[nH]c4c3)[nH]c2c1-c1ccccn1	pIC50	≥ 5.00

Given the entry "O=c1cc(-c2ccccc2)[nH]c2c(-c3ccccn3)cnn12" , report its measured pIC50.
≥ 5.00

Follow-up item: "CC(C)N(C)c1nc2cc(C(=O)O)ccc2nc1-c1cc2cc(F)ccc2s1"
> 5.00

Follow-up item: "Cc1cc(=O)n2nc(C)c(-c3ccc(Cl)cc3)c2[nH]1"
≤ 5.00

Follow-up item: "CCn1ncc2cc(-c3cc(=O)n4ncc(-c5nnc(C)o5)c4[nH]3)ccc21"
≥ 5.00

Follow-up item: "CC(C)N(C)c1nc2cc(C(=O)O)ccc2nc1-c1cc2ccccc2s1"
> 5.00
